Listing of recorded EC50 (read off the curve) by entry.
# target: T1, recombinant human ROR1-His (Sino Biological, 13968-H08H) (human, UniProt Q01973 30-406)
# T1 construct: extracellular domain; Bought protein; also called ROR1-HIS protein; not shown: His tag
# T1 sequence (Q01973 30-406): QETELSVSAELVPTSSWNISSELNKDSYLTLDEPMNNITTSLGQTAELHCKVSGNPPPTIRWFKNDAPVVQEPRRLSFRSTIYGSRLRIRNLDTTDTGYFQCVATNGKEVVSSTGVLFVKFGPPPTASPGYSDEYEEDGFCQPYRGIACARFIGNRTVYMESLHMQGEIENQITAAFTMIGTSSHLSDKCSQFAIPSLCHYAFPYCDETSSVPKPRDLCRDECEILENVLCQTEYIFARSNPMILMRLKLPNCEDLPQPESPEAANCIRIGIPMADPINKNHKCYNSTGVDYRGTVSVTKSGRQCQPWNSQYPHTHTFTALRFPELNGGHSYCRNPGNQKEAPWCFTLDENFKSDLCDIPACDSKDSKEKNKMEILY
# experiment_summary: ELISA, wells coated with human ROR1 protein (sheet: 'human ROR1'; text: ROR1-Fc or ROR1-His), IgG titrated, HRP anti-Fab detection, OD (450-650nm)

anti-ROR1 IgG antibody A2F2 (antibody, V domains shown, Full IgG form (human IgG1 constant region, lambda light chain), expressed in CHO-S cells) VH: EVQLLESGGGLVQPGGSLRLSCAASGFTFSDYYMSWVRQAPGKGLEWVSSISPDGSNTYYADSVKGRFTISRDNSKNTLYLQMNSLRAEDTAVYYCAKNLRAFDYWGQGTLVTVSS VL: QSVLTQPPPASGTPGQRVTISCSGSSSNIGSNTVYWYQQLPGTAPKLLIYANSQRPSGVPDRFSGSKSGTSASLAISGLRSEDEADYYCGSWDYSLSGYVFGGGTKLTVLG
~0.2 nM
anti-ROR1 IgG antibody D2B12 (antibody, V domains shown, Full IgG form (human IgG1 constant region, lambda light chain), expressed in CHO-S cells) VH: EVQLLESGGGLVQPGGSLRLSCAASGFTFSNYDMSWVRQAPGKGLEWVSSISPSSGSSIYYADSVKGRFTISRDNSKNTLYLQMNSLRAEDTAVYYCAKAPGWCQAPSCYYDNAMDVWGQGTLVTVSS VL: QSVLTQPPSASGTPGQRVTISCSGSSSNIGNNDVSWYQQLPGTAPKLLIYDDSQRPSGVPDRFSGSKSGTSASLAISGLRSEDEADYYCGAWDDSLSGYVFGGGTKLTVLG
~0.2 nM

Lookup result for anti-ROR1 IgG antibody A2F3 (antibody, V domains shown, Full IgG form (human IgG1 constant region, lambda light chain), expressed in CHO-S cells) VH: EVQLLESGGGLVQPGGSLRLSCAASGFTFSSYDMSWVRQAPGKGLEWVSWISPGGGSKYYADSVKGRFTISRDNSKNTLYLQMNSLRAEDTAVYYCARVNGRFDYWGQGTLVTVSS VL: QSVLTQPPSASGTPGQRVTISCSGSSSNIGNNNVSWYQQLPGTAPKLLIYADSHRPSGVPDRFSGSKSGTSASLAISGLRSEDEADYYCATWDYSLSGYVFGGGTKLTVLG ; measured EC50 (read off the curve): ~0.6 nM
